Compound	melting point
O=C1CC(=O)N(C2CCCC2)C(=O)N1CCc1cccc(C(F)(F)F)c1 [Compound 7]	97 to 98 °C
O=C1CC(=O)N(C2CCCCC2)C(=O)N1CCc1cccc(Br)c1 [Compound 5]	154 to 155 °C
O=C1CC(=O)N(C2CCCC2)C(=O)N1CCc1cccc(Cl)c1 [Compound 8]	131 to 132 °C
O=C1CC(=O)N(C2CCCCC2)C(=O)N1CCc1cccc(Cl)c1 [Compound 3]	153 to 154 °C
O=C1CC(=O)N(C2CCCC2)C(=O)N1CCCCc1ccccc1 [Compound 2]	85 to 87 °C

----------
molecular target: Cav1.3 L-type Ca channels (Rattus norvegicus, UniProt P27732); construct: expressed in transfected cells; host or cells: HEK293; assay: FLIPR Fluo-8 calcium assay, Cav1.3 channel inhibition in HEK293 cells; format: cell-based; conditions: IC50 (μM) Cav1.3, second library; FLIPR, HEK293; value (±SD)
The label 1 is reserved for IC50 strictly under 8 µM; -1 covers values equal to or above it.

Record smiles	Class assignment
O=C1CC(=O)N(C2CCCCC2)C(=O)N1CCc1cccc(Br)c1	1
O=C1CC(=O)N(C2CCCCC2)C(=O)N1CCCc1ccccc1	1
O=C1CC(=O)N(C2CCCCC2)C(=O)N1CCc1ccccc1Cl	1
N#Cc1cccc(CCN2C(=O)CC(=O)N(C3CCCCC3)C2=O)c1	-1
O=C1CC(=O)N(C2CCCCC2)C(=O)N1Cc1cccc([N+](=O)[O-])c1	-1

----------
target: Cav1.2 L-type Ca channels (Oryctolagus cuniculus, UniProt P15381); assay: FLIPR Fluo-8 calcium assay, Cav1.2 channel inhibition in HEK293 cells; details: IC50 (μM) CaV1.2, first library; FLIPR, HEK293; value (±SD)
Sequence (P15381 whole entry): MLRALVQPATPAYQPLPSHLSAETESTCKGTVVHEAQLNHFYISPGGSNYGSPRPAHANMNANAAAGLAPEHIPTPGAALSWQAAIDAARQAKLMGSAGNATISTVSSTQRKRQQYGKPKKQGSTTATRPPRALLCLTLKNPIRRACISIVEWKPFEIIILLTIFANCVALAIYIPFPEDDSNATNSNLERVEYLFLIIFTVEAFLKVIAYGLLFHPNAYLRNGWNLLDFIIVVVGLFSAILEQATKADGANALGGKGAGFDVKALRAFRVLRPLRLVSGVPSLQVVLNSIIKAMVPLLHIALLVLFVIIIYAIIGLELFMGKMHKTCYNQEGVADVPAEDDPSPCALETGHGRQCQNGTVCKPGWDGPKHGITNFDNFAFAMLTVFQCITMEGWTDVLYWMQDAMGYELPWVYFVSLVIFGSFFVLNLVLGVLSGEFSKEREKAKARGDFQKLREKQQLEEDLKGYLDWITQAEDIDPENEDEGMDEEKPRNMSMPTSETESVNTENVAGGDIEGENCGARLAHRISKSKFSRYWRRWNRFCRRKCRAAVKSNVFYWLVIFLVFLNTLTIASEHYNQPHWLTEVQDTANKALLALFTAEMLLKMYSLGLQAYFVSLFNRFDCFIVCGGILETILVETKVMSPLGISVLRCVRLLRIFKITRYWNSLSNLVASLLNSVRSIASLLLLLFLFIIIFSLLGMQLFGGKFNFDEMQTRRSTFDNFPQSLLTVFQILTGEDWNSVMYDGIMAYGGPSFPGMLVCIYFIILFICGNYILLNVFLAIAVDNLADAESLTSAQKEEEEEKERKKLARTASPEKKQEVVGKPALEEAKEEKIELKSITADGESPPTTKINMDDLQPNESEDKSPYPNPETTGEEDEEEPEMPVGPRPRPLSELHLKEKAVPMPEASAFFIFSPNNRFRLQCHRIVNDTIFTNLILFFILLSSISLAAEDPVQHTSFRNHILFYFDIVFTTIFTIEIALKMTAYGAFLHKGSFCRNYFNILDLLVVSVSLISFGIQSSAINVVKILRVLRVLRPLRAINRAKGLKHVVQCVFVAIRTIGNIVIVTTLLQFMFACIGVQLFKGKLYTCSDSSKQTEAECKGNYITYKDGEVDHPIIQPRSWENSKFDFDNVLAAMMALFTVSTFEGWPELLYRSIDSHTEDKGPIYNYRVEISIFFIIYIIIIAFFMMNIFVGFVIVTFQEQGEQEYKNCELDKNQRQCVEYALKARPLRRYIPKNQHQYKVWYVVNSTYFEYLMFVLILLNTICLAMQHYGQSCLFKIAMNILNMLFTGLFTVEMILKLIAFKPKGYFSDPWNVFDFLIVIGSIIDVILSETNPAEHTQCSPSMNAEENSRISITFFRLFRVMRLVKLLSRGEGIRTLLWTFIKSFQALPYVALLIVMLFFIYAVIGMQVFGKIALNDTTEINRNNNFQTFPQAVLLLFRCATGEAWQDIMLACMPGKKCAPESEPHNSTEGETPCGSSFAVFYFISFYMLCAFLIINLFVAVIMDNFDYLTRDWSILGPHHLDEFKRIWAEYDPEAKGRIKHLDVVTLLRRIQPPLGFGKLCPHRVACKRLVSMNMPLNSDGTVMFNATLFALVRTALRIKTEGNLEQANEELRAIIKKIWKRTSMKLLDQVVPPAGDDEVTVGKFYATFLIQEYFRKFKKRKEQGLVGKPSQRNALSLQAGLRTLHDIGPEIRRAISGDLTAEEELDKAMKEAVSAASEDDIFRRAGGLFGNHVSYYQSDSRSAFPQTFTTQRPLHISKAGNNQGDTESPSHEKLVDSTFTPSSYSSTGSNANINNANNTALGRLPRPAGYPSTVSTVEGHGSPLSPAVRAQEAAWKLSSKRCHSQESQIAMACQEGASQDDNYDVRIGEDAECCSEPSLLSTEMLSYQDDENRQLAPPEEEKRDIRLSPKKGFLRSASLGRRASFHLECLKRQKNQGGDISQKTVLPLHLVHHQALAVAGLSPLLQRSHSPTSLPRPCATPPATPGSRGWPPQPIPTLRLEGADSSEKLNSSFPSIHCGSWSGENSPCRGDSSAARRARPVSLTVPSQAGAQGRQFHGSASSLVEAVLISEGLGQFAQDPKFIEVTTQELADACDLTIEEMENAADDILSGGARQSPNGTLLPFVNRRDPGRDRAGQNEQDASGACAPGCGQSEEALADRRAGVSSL
Sequence (P54284 whole entry partner): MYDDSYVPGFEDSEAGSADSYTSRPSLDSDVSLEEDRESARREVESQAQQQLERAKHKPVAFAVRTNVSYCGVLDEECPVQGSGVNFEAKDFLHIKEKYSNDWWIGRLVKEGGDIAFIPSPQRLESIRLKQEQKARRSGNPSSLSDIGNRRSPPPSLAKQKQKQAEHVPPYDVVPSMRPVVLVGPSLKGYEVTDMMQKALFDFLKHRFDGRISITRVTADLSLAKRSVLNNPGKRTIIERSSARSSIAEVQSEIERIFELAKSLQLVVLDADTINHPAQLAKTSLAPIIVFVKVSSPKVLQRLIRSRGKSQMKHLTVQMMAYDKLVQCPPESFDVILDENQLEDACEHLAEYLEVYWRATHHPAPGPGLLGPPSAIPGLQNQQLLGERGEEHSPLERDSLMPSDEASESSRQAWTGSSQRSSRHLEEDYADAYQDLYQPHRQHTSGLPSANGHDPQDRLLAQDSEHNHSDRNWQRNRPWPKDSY
Sequence (P54289 25-956 partner limits assumed): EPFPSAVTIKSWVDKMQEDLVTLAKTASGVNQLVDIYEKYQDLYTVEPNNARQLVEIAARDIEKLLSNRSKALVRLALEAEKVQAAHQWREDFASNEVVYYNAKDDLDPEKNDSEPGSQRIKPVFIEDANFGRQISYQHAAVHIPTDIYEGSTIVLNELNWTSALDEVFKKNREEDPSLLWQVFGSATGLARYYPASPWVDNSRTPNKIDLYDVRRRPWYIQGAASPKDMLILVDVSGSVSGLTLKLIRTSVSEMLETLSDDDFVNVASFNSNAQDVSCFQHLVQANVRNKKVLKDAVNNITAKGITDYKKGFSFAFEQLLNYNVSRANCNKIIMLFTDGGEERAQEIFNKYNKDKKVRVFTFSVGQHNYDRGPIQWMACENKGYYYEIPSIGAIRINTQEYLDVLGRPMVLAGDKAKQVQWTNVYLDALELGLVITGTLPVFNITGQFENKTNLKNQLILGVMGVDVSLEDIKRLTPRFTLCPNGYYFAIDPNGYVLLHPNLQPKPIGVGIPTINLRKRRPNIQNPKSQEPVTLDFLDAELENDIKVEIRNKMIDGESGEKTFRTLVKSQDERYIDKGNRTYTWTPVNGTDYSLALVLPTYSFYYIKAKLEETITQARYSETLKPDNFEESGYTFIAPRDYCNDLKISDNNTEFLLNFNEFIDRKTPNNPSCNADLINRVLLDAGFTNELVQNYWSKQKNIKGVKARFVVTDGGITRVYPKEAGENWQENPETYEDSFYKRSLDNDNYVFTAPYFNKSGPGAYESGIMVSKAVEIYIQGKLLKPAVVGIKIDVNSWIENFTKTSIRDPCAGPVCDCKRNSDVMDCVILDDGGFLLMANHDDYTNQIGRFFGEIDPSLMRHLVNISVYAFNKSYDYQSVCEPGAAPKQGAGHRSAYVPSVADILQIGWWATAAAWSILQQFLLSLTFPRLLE
Sequence (P54289 957-1103 partner limits assumed): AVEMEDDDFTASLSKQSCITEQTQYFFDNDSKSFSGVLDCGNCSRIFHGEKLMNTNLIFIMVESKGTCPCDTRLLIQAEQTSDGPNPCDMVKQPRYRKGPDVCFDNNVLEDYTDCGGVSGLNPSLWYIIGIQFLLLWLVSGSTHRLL
Checkbox rule: IC50 lower than 4 µM = Criterion met; IC50 not lower than 4 µM = Criterion not met.

Compound	Test target	Class assignment
O=C1CC(=O)N(CCc2ccc(F)cc2)C(=O)N1CCCc1ccccc1 [Compound 55]	Cav1.2 L-type Ca channels (Oryctolagus cuniculus, UniProt P15381)	Criterion met
O=C1CC(=O)N(CCc2ccc(Cl)cc2)C(=O)N1CCc1ccc(F)cc1 [Compound 18]	Cav1.2 L-type Ca channels (Oryctolagus cuniculus, UniProt P15381)	Criterion met
O=C1CC(=O)N(CCc2cccc(Cl)c2)C(=O)N1CCc1ccc(Cl)cc1 [Compound 12]	Cav1.2 L-type Ca channels (Oryctolagus cuniculus, UniProt P15381)	Criterion not met
O=C1CC(=O)N(CCc2ccc(Cl)cc2Cl)C(=O)N1CCc1ccc(Cl)cc1 [Compound 13]	Cav1.2 L-type Ca channels (Oryctolagus cuniculus, UniProt P15381)	Criterion met
C=CCOC(=O)[C@H](Cc1ccccc1)N1C(=O)CC(=O)N(CCc2ccc(Cl)cc2)C1=O [Compound 37]	Cav1.2 L-type Ca channels (Oryctolagus cuniculus, UniProt P15381)	Criterion not met
O=C1CC(=O)N(CCc2cccc(C(F)(F)F)c2)C(=O)N1CCCCc1ccccc1 [Compound 43]	Cav1.2 L-type Ca channels (Oryctolagus cuniculus, UniProt P15381)	Criterion met
O=C1CC(=O)N(CCc2ccc(Cl)cc2)C(=O)N1CCCc1ccccc1 [Compound 27]	Cav1.2 L-type Ca channels (Oryctolagus cuniculus, UniProt P15381)	Criterion met
O=C1CC(=O)N(Cc2ccc([N+](=O)[O-])cc2)C(=O)N1CCCCc1ccccc1 [Compound 45]	Cav1.2 L-type Ca channels (Oryctolagus cuniculus, UniProt P15381)	Criterion not met

----------
molecular target: Cav1.3 L-type Ca channels (Rattus norvegicus); construct: expressed in transfected cells; host or cells: HEK293; experiment: FLIPR Fluo-8 calcium assay, Cav1.3 channel inhibition in HEK293 cells; type: cell-based; conditions: IC50 (μM) Cav1.3, second library; FLIPR, HEK293; value (±SD)
1 (yes) if IC50 is below 10 µM. 0 (no) if not; exact matches included in 0 (no).

Molecule	Class assignment
N#Cc1ccc(CCN2C(=O)CC(=O)N(C3CCCCC3)C2=O)cc1	0 (no)
Cc1cccc(CCN2C(=O)CC(=O)N(C3CCCCC3)C2=O)c1	1 (yes)
O=C1CC(=O)N(C2CCc3ccccc32)C(=O)N1C1CCCCC1 (stereo not drawn)	0 (no)
COc1ccc(CN2C(=O)CC(=O)N(C3CCCCC3)C2=O)cc1	0 (no)
Cc1ccc(CCN2C(=O)CC(=O)N(C3CCCCC3)C2=O)cc1	1 (yes)
O=C1CC(=O)N(C2CCCCC2)C(=O)N1CCOc1ccccc1	1 (yes)
O=C(O)c1cccc(CCN2C(=O)CC(=O)N(C3CCCCC3)C2=O)c1	0 (no)
O=C1CC(=O)N(C2CCCCC2)C(=O)N1CCc1cccc(C(F)(F)F)c1	1 (yes)
O=C1CC(=O)N(C2CCCCC2)C(=O)N1CCc1ccc(Br)cc1	1 (yes)

----------
Below, each entry is listed alongside its reported IC50.
molecular target: Cav1.3 L-type Ca channels (Rattus norvegicus); construct: expressed in transfected cells; host or cells: HEK293; experiment: FLIPR Fluo-8 calcium assay, Cav1.3 channel inhibition in HEK293 cells; type: cell-based; conditions: IC50 (μM) CaV1.3, first library; FLIPR, HEK293; value (±SD)

Compound	Test target	IC50 (µM)
O=C1CC(=O)N(CCc2cccc(C(F)(F)F)c2)C(=O)N1CCCCc1ccccc1	Cav1.3 L-type Ca channels (Rattus norvegicus)	0.5
O=C1CC(=O)N(CCc2ccc3ccccc3c2)C(=O)N1CCc1ccc(Cl)cc1	Cav1.3 L-type Ca channels (Rattus norvegicus)	1.1
O=C1CC(=O)N(C2CCCCC2)C(=O)N1CCc1ccc(Cl)cc1	Cav1.3 L-type Ca channels (Rattus norvegicus)	1.1
O=C1CC(=O)N(CCc2ccc(Br)cc2)C(=O)N1CCCCc1ccccc1	Cav1.3 L-type Ca channels (Rattus norvegicus)	1.1
O=C1CC(=O)N(CCc2ccc(Cl)cc2)C(=O)N1CCc1ccc(Cl)cc1	Cav1.3 L-type Ca channels (Rattus norvegicus)	1.8
O=C1CC(=O)N(C2CCc3ccccc32)C(=O)N1CCCCc1ccccc1 (stereo not shown)	Cav1.3 L-type Ca channels (Rattus norvegicus)	5.3
O=C1CC(=O)N(C2CCCC2)C(=O)N1CCCCc1ccccc1	Cav1.3 L-type Ca channels (Rattus norvegicus)	1.3

----------
In this section we review reported IC50 values for a set of molecules.
target: Cav1.3 L-type Ca channels (Rattus norvegicus, UniProt P27732); construct: expressed in transfected cells; host or cells: HEK293; test: FLIPR Fluo-8 calcium assay, Cav1.3 channel inhibition in HEK293 cells; assay type: cell-based; conditions: third library; FLIPR, HEK293; value (±SD); read-out: IC50 (μM) Cav1.3
Measurement kind: IC50 (µM)

Molecule	Result value
O=C1CC(=O)N(C2CCC2)C(=O)N1CCc1ccc(Cl)cc1	1.8
O=C1CC(=O)N([C@H]2C[C@@H]3CC[C@H]2C3)C(=O)N1CCc1cccc(Cl)c1 (racemic)	1.9
O=C1CC(=O)N(C2CC3CCC2C3)C(=O)N1CCc1ccc(Cl)cc1 (racemic)	0.6
O=C1CC(=O)N([C@@H]2C[C@@H]3CC[C@H]2C3)C(=O)N1CCc1cccc(Cl)c1 (racemic)	0.8

----------
biological target: Cav1.3 L-type Ca channels (Rattus norvegicus, UniProt P27732); construct: expressed in transfected cells; host or cells: HEK293; experiment: FLIPR Fluo-8 calcium assay, Cav1.3 channel inhibition in HEK293 cells; assay type: cell-based; details: IC50 (μM) CaV1.3, first library; FLIPR, HEK293; value (±SD)
Listing of entries alongside the reported IC50.

Molecule	Test target	IC50 [µM]
O=C1CC(=O)N(Cc2cccc([N+](=O)[O-])c2)C(=O)N1CCc1ccc2ccccc2c1	Cav1.3 L-type Ca channels (Rattus norvegicus, UniProt P27732)	4.8
COC(=O)[C@H](CC(C)C)N1C(=O)CC(=O)N(CCc2ccc(Cl)cc2)C1=O	Cav1.3 L-type Ca channels (Rattus norvegicus, UniProt P27732)	20.6
Cc1ccc(CCN2C(=O)CC(=O)N(CCc3ccc(Cl)cc3)C2=O)cc1	Cav1.3 L-type Ca channels (Rattus norvegicus, UniProt P27732)	1.1
O=C1CC(=O)N(C2CCCc3ccccc32)C(=O)N1CCCCc1ccccc1 (stereo not shown)	Cav1.3 L-type Ca channels (Rattus norvegicus, UniProt P27732)	36.5

----------
melting point values, listed per item

Compound	melting point
Cc1cccc(CCN2C(=O)CC(=O)N(C3CCCCC3)C2=O)c1 [Compound 4]	182 to 183 °C
O=C1CC(=O)N(C2CCCCC2)C(=O)N1CCc1cccc(C(F)(F)F)c1 [Compound 6]	105 to 107 °C
O=C1CC(=O)N(C2CCCCC2)C(=O)N1CCc1ccc(Cl)cc1 [Compound 1]	146 to 148 °C
